Values from patent US20200017592A1

# Target Desc: Macaca fascicularis IL-36R extracellular domain expressed with a C-terminal myc-myc-hexahistidine tag (Macaca fascicularis)
# Assay Protocol: SPR (Biacore 4000), mAb captured on anti-human Fc, 25°C
Parameter: koff (s⁻¹)
Field format: number, assumed s⁻¹, no unit text.

Give its koff value. Item: H4H14700P2 (antibody, human IgG4 S228P, kappa, V domains shown) VH: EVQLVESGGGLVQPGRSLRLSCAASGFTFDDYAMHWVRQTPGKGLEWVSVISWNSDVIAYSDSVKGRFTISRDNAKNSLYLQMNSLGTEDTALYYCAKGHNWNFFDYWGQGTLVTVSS VL: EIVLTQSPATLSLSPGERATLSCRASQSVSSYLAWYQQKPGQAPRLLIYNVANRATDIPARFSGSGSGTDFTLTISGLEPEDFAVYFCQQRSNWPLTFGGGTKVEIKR
0.000635
